// data source = the nanobody polyreactivity screen of Harvey et al. (2022)

Experiment: yeast display, Sf9 membrane polyspecificity reagent, FACS + sequencing; frameworks hold sequencing errors
Value type: polyreactivity (PSR sort gate)

QVQLVESVGGLVQAGGSLRLSCAASGSTFYHYAMGWYRQAPGKVRELVASISHSGGRTFYADSVKGRFTISRDNAMNTVYLQMNSLKPEDTAVYYCAADWRTRYDYWGQGTQVTVSS low polyreactivity
QVQLVESGGALVQEAGSLRLRCAASGSIFDYKGMRWSRPAPGKERELVAAITSSGGSTYYADSVKGRFSISRDNAKNTDYLQMNSLIPEVSAFYYCAVDILYFPASYATQPVDYWGQGTQVTVSS low polyreactivity
QVQLVESGGGLVQAGGSLRLSCAASGSTFYNNAMGWYRQAPGKERELVATISASSTSTYYADSVKGRFTISRDNAKNTVYLQMNSLKPEDTAVYYCAKDYVHGSTYGYYWYGYDYWGQGTQVTVSS low polyreactivity
QVQLVESGGGLVQAGGSLRLSCAASGRTFGSNAMGWYRQAPGKERELVANIDGGGGTYADSVKGRFTISRDNAKNTVYLQMNSLKPEDTAVYYCATRWSGYDMDYWGQGTQVTVSS low polyreactivity
QVQLVESGGGLVQAGGSLRLSCAASGSIFRGNAMGWYIQAPGKERELVAGINRAGSTKYADSVKGRFTISRDNAKNTVYLQMNSLKPEDTAVYYCAAVRYVRCLWSDYWGQGTKVTVSS high polyreactivity
QVQLVESGGGLVQAGGSLRLSCAASGSIFGNNVMGWYRQAPGKERELVAAITSGTSTYYADSVKGRFTISRDNAKNTVYLQMNSLKPEDTAVYYCAALWSSRYVVHPQWYDYWGQGTQVTVSS low polyreactivity
QVQLVESGGCLVQAGGSLRLSCASSGSTFTHYAMGWYIQSPGKERELVAAISSGGSTYYADSVKGRFTISRDNAKNTVYLQMNSLKPEDTAVYYCAADYYLHDWWYPHDYWGQGTQVTVSS low polyreactivity
QVQLVESGGGLVQAGGSLRLSCAASGSIFVYNAMAWYRPAPGKERELVAAISRGGRTYADSVKGRFTISRDNAKNTVYLQMNSLKPEDTAVYYCAAQGYYRSWYSRQGHYDYWGQGTQVTVSS high polyreactivity
QVQLVESGGGLVQAGGSHRLSCAASGRTFGGNVMGWYRPAHWKERELVAAISSTGDRTYYADSVKGRFTISRDNAKNTVYLQMYSLKPEDTAVYYCAARPAYRSSYYWGQGTQVTVSS high polyreactivity
QVQLVESGGGLVQAGGSLRLSCAAWSIFYLNAMGWYRQAPGKERELVAAISSAGSTYYADSVKGRFTISRDNAKNTVYLQMNSLKPEDTAVYYCAAYWYDSPGVTEIWYDYWGQGTQVTVSS low polyreactivity

# get_value(readout='polyreactivity (PSR sort gate)', item= QVQLVESGGGLVQAGGSLRLSCAASGSTFIVNAMGWYRQAPGKERELVAAIRRGTRTNYADSVKGRFTISRDNAKNTVYLQMNSLKPEDTAVYYCAVRGSYRGWYDYWGQGTQVTVSS ) high polyreactivity

Fill in: polyreactivity (PSR sort gate) of QGQLLESGGGLVQAGGSLRLSCAASRFNFRFYAIGWYRQAPGKERELVASITQGGSTYYADSVKGSFTISRDNAKNTVYLQMNSLKPVDTAVYSCAARYLGGRRSGDYSRYYWGQGTQVSVSS is ___ high polyreactivity
